Consider the following molecules; for each one, report its EC50.
- Tested On: human activated kallikrein enzyme (Homo sapiens (Human))
- Assay Text: Plasma kallikrein inhibition assay with fluorogenic peptide substrate, 500 pM activated kallikrein format
- Type: biochemical
- Details: 500 pM activated kallikrein; 300 uM Pro-Phe-Arg-7-amido-4-methylcoumarin substrate; 30 min preincubation, 10 min reaction at RT; read-out: Primary Dose Response Assay: Average EC50

Using the record for COc1ccnc(CNC(=O)c2cn3c(n2)CCC3c2cn3cc(C4CC4)ccc3n2)c1F (stereo not shown) , report its EC50.
10 to 100 nM

Using the record for Nc1nnc(CNC(=O)c2cn(Cc3cn4cc(C5CC5)ccc4n3)nn2)s1 , report its EC50.
2000 to 7100 nM

Using the record for O=C(NCc1cc(Cl)ccc1-c1nn[nH]n1)c1cnn(Cc2cn3cc(C4CC4)ccc3n2)c1 , report its EC50.
> 7100 nM

Using the record for O=C(NCc1cc(Cl)ccc1-n1cnnn1)c1cnn(Cc2cn3cc(C4CC4)ccc3n2)c1 , report its EC50.
1 to 10 nM

Using the record for COc1ccc(-n2cnnn2)c(CNS(=O)(=O)c2cnn(Cc3cn4cc(C5CC5)ccc4n3)c2)c1F , report its EC50.
1 to 10 nM

Using the record for O=C(NCc1ccc2[nH]cc(Cl)c2c1)c1cn(Cc2cn3cc(C4CC4)ccc3n2)nn1 , report its EC50.
10 to 100 nM

Using the record for O=C(NCc1cccc(Cl)c1)c1cnn(Cc2cn3cc(C4CC4)ccc3n2)c1 , report its EC50.
100 to 2000 nM

Using the record for COc1ccnc(CNC(=O)c2cn(Cc3cn4cc(C5CC5)ccc4n3)nn2)c1F , report its EC50.
10 to 100 nM

Using the record for CN1CCN(c2cc(C3CC3)cn3cc(Cn4cc(C(=O)NCc5nccc(OC(F)F)c5F)nn4)nc23)CC1 , report its EC50.
1 to 10 nM

Using the record for Cc1cc(C(=N)N)cc(C)c1CNS(=O)(=O)c1cnn(Cc2cn3cc(C4CC4)ccc3n2)c1 , report its EC50.
10 to 100 nM

Using the record for Nc1nccc2c1CCC2NC(=O)c1cn(Cc2cn3cc(C4CC4)ccc3n2)nn1 (stereo not shown) , report its EC50.
≤ 1 nM

Using the record for Cc1cc(C#N)cc(C)c1CNS(=O)(=O)c1cnn(Cc2cn3cc(C4CC4)ccc3n2)c1 , report its EC50.
> 7100 nM

Using the record for O=C(NCc1nccc(OC(F)F)c1F)c1cn(Cc2cn3cc(C4CC4)cc(N4CCN(CC(F)(F)F)CC4)c3n2)nn1 , report its EC50.
100 to 2000 nM

Using the record for COc1ccc(-c2ccnnc2)c(CNC(=O)c2cn(Cc3cn4cc(C5CC5)ccc4n3)nn2)c1F , report its EC50.
1 to 10 nM

Using the record for O=S(=O)(NCc1c(-n2cnnn2)ccc(Cl)c1F)c1cn(Cc2cn3cc(C4CC4)ccc3n2)nn1 , report its EC50.
100 to 2000 nM

Using the record for CCOC(=O)CCc1cc(C2CC2)cn2cc(Cn3cc(C(=O)NCc4c(-n5cnnn5)ccc(OC)c4F)nn3)nc12 , report its EC50.
≤ 1 nM

* * *

Consider the following molecules; for each one, report its EC50.
- Tested On: human activated kallikrein enzyme (Homo sapiens (Human), UniProt P03952)
- Sequence (P03952 391-638): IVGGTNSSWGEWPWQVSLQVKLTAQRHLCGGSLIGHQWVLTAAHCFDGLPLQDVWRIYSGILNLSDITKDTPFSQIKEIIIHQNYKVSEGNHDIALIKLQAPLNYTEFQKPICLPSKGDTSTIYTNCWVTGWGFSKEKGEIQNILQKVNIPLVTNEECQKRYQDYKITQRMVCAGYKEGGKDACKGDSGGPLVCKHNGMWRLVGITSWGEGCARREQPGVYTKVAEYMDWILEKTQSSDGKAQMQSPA
- Sequence (P03952 20-390 partner): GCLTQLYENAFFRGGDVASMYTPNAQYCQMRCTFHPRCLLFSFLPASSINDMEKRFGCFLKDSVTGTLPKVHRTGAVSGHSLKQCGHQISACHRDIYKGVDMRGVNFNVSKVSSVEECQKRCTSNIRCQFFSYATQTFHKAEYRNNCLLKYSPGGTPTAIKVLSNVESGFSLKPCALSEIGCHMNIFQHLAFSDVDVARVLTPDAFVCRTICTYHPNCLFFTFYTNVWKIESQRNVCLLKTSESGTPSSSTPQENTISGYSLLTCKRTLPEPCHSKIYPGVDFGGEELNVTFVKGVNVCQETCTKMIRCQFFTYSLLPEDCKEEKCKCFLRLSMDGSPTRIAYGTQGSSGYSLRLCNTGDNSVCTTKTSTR
- Assay Text: Plasma kallikrein inhibition assay with fluorogenic peptide substrate, 500 pM activated kallikrein format
- Type: biochemical
- Details: 500 pM activated kallikrein; 300 uM Pro-Phe-Arg-7-amido-4-methylcoumarin substrate; 30 min preincubation, 10 min reaction at RT; read-out: Primary Dose Response Assay: Average EC50

Using the record for COc1ccc(-n2cnnn2)c(CNC(=O)c2c(C)nn(Cc3cn4cc(C5CC5)ccc4n3)c2C)c1F , report its EC50.
100 to 2000 nM

Using the record for O=S(=O)(NCCc1cccc(Cl)c1)c1cnn(Cc2cn3cc(C4CC4)ccc3n2)c1 , report its EC50.
> 7100 nM

Using the record for COc1ccc(-n2cnnn2)c(C(C)NC(=O)c2cn(Cc3cn4cc(C5CC5)ccc4n3)nn2)c1F (stereo not shown) , report its EC50.
1 to 10 nM

Using the record for COc1ccc(-n2cc(Cl)nn2)c(CNC(=O)c2cn(Cc3cn4cc(C5CC5)ccc4n3)nn2)c1F , report its EC50.
≤ 1 nM

Using the record for O=C(NCc1nccc2ccc(Cl)cc12)c1cnn(Cc2cn3cc(C4CC4)ccc3n2)c1 , report its EC50.
100 to 2000 nM

Using the record for COc1ccc(-c2c[nH]nn2)c(CNC(=O)c2cn(Cc3cn4cc(C5CC5)ccc4n3)nn2)c1F [Example I-49] , report its EC50.
10 to 100 nM

Using the record for COc1ccc(-c2ccncc2)c(CNC(=O)c2cn(Cc3cn4cc(C5CC5)ccc4n3)nn2)c1F , report its EC50.
1 to 10 nM

* * *

Consider the following compounds; for each one, report its EC50.
- Tested On: human activated kallikrein enzyme (Homo sapiens (Human), UniProt P03952)
- Assay Text: Plasma kallikrein inhibition assay with fluorogenic peptide substrate, 500 pM activated kallikrein format
- Assay type: biochemical
- Details: 500 pM activated kallikrein; 300 uM Pro-Phe-Arg-7-amido-4-methylcoumarin substrate; 30 min preincubation, 10 min reaction at RT; read-out: Primary Dose Response Assay: Average EC50
- Method: Example compounds were evaluated for inhibition of the human activated kallikrein enzyme in two formats of an assay employing a fluorogenic peptide substrate. […] After initiation with substrate, reactions were incubated for 10 min at RT and fluorescence emission at 460 nm from 380 nm excitation measured with a microplate reader. […] After initiation with substrate, reactions were incubated for 18 h at RT and fluorescence emission at 460 nm from 380 nm excitation measured with a microplate reader. […]

# get_value(readout= EC50, system= human activated kallikrein enzyme (Homo sapiens (Human), UniProt P03952)) for COc1ccc(-c2cn3ccccc3n2)c(CNC(=O)c2cn(Cc3cn4cc(C5CC5)ccc4n3)nn2)c1F
10 to 100 nM

# get_value(readout= EC50, system= human activated kallikrein enzyme (Homo sapiens (Human), UniProt P03952)) for COc1ccc(-n2cnnn2)c(CNC(=O)c2nc3n(n2)CCC3c2cn3cc(C4CC4)ccc3n2)c1F (stereo not shown)
1 to 10 nM

# get_value(readout= EC50, system= human activated kallikrein enzyme (Homo sapiens (Human), UniProt P03952)) for COc1ccc(-n2cnnn2)c(CNC(=O)c2cn(Cc3cn4cc(C5CC5)cc(C5(F)COC5)c4n3)nn2)c1F
≤ 1 nM

# get_value(readout= EC50, system= human activated kallikrein enzyme (Homo sapiens (Human), UniProt P03952)) for COC(=O)c1ccc(-c2ccc(OC)c(F)c2CNC(=O)c2cn(Cc3cn4cc(C5CC5)ccc4n3)nn2)cc1
10 to 100 nM

# get_value(readout= EC50, system= human activated kallikrein enzyme (Homo sapiens (Human), UniProt P03952)) for COc1ccc(-n2cnnn2)c(CNC(=O)c2cn(Cc3cn4cc(C5CC5)cc(-n5cnnc5)c4n3)nn2)c1F
≤ 1 nM

# get_value(readout= EC50, system= human activated kallikrein enzyme (Homo sapiens (Human), UniProt P03952)) for Cc1cc(C(=N)N)cc(C)c1CNC(=O)c1cn(Cc2cn3cc(C4CC4)cc(C(=O)O)c3n2)nn1
≤ 1 nM

# get_value(readout= EC50, system= human activated kallikrein enzyme (Homo sapiens (Human), UniProt P03952)) for O=C(NCc1cc2ccc(Cl)cc2s1)c1cn(Cc2cn3cc(C4CC4)ccc3n2)nn1
> 7100 nM

* * *

- Tested On: human activated kallikrein enzyme (Homo sapiens (Human))
- Assay Text: Plasma kallikrein inhibition assay with fluorogenic peptide substrate, 500 pM activated kallikrein format
- Type: biochemical
- Details: 500 pM activated kallikrein; 300 uM Pro-Phe-Arg-7-amido-4-methylcoumarin substrate; 30 min preincubation, 10 min reaction at RT; read-out: Primary Dose Response Assay: Average EC50
Consider the following molecules; for each one, report its EC50.

Using the record for COc1ccc(S(C)(=O)=O)c(CNC(=O)c2cn(Cc3cn4cc(C5CC5)ccc4n3)nn2)c1F [Example I-53] , report its EC50.
100 to 2000 nM

Using the record for Cc1cc2[nH]ccc2c(C)c1CNC(=O)c1cnn(Cc2cn3cc(C4CC4)ccc3n2)c1 [Example I-124] , report its EC50.
10 to 100 nM

Using the record for COc1ccc(-n2cnnn2)c(CN(C)C(=O)c2cn(Cc3cn4cc(C5CC5)ccc4n3)nn2)c1F [Example I-66] , report its EC50.
100 to 2000 nM

Using the record for O=C(NCc1c(-n2cnnn2)ccc(Cl)c1F)c1cnn(Cc2cn3cc(C4CC4)ccc3n2)c1 [Example I-116] , report its EC50.
≤ 1 nM

Using the record for NCc1ccc(CNS(=O)(=O)c2cnn(Cc3cn4cc(C5CC5)ccc4n3)c2)cc1 [Example I-33] , report its EC50.
2000 to 7100 nM

Using the record for O=C(NCc1ccc2nccn2c1)c1cn(Cc2cn3cc(C4CC4)ccc3n2)nn1 [Example I-136] , report its EC50.
100 to 2000 nM

Using the record for CCc1ccc(-n2cnnn2)c(CNC(=O)c2cn(Cc3cn4cc(C5CC5)ccc4n3)nn2)c1F [Example I-83] , report its EC50.
10 to 100 nM

Using the record for O=C(NCc1cc2occc2cn1)c1cn(Cc2cn3cc(C4CC4)ccc3n2)nn1 [Example I-140] , report its EC50.
100 to 2000 nM
